Test: Selectivity index, ratio of EC50 for toxicity in human BEAS2B cells to MIC50 for antifungal activity against Aspergillus flavus ATCC MYA-3631
Format: cell-based
Settings: read-out: Selectivity Index
experimental-readout: selectivity ratio
Field format: numeric only.

Supply reported selectivity ratio belonging to this molecule: CC[C@@H]([C@H](C)O)n1ncn(-c2ccc(N3CCN(c4ccc(OC[C@@H]5CO[C@@](Cn6cncn6)(c6ccc(F)cc6F)C5)cc4)CC3)cc2)c1=O [POSACONAZOLE]
108

====

Assay: Selectivity index, ratio of EC50 for toxicity in human A549 cells to MIC50 for antifungal activity against Aspergillus terreus ATCC MYA-3633
Assay type: cell-based
Conditions: read-out: Selectivity Index
experimental-readout: selectivity ratio

Supply reported selectivity ratio belonging to this compound: CC[C@@H]([C@H](C)O)n1ncn(-c2ccc(N3CCN(c4ccc(OC[C@@H]5CO[C@@](Cn6cncn6)(c6ccc(F)cc6F)C5)cc4)CC3)cc2)c1=O
77
